test system: Escherichia coli TOP10; test: shrunken log2 fold change of peptide-encoding DNA abundance (4.5 h post-induction vs induction); higher = less antimicrobial activity (less host growth inhibition); settings: time post-induction: 4.5 h; library: site-saturation at positions 5, 18, 19, 20
PROPERTY_LABEL: shrunken log2 fold change

The examples below pair each entry with its known result.
1. RRIRWRPPRLPRPRPRPLFFPRP
-0.00386
2. RRIRARPPRLPRPRPRPQFKPRP
-0.0331
3. RRIRNRPPRLPRPRPRPDWFPRP
-0.0803
4. RRIRGRPPRLPRPRPRPDHQPRP
0.12
5. RRIRTRPPRLPRPRPRPDQSPRP
-0.0809
6. RRIRLRPPRLPRPRPRPNHFPRP
-0.349
7. RRIRSRPPRLPRPRPRPFFYPRP
-0.17
8. RRIRGRPPRLPRPRPRPMFCPRP
0.178

Exam item: API: value(readout=shrunken log2 fold change, system=Escherichia coli TOP10) for record RRIRGRPPRLPRPRPRPLQRPRP;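 also: peptides expressed intracellularly from a pBAD plasmid library in pooled LB shake-flask culture, induced with 0.3% L-arabinose, DNA abundance read by NGS, three biological replicates, DESeq2 with apeglm shrinkage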
Marked response: 0.762

Exam item: What would you report for RRIRLRPPRLPRPRPRPADPPRP ?
Marked response: 0.0111

Exam item: Proceed to RRIRMRPPRLPRPRPRPLGNPRP
Marked response: -0.0024
